The values you see were collected from patent US12448369B2.

// Skeletal EC25 lookup, one value per entry
# System: Rabbit Psoas myofibrils (skeletal myosin ATPase)
# protocolDescription: Myofibril ATPase assay, rabbit psoas (skeletal) myofibrils
# Type: biochemical
# testParameters: Y75 value (no ‡ mark); rabbit psoas myofibrils
Kindly provide the numeric value in nM only, without the unit symbol.

>  <molecule>
Cc1c(CC(=O)N[C@@H](C)c2ncc(C#N)cc2F)c(=O)[nH]c2ccc(F)cc12 [compound 1107]

>  <assayReadout>
Skeletal EC25

>  <unitLabel>
nM

>  <recordedResult>
30

$$$$
>  <molecule>
C[C@H](NC(=O)Cc1c(C(F)(F)F)c2ccccc2[nH]c1=O)c1ccc(F)cc1F [compound 129]

>  <assayReadout>
Skeletal EC25

>  <unitLabel>
nM

>  <recordedResult>
40

$$$$
>  <molecule>
Cc1c(CC(=O)N[C@@H](C)c2ccc(C#N)cn2)c(=O)[nH]c2ccc(F)cc12 [compound 1128]

>  <assayReadout>
Skeletal EC25

>  <unitLabel>
nM

>  <recordedResult>
90

$$$$
>  <molecule>
C[C@H](NC(=O)Cc1cc2c(C#N)c(O)ccc2[nH]c1=O)c1ccc(F)cc1F [compound 82]

>  <assayReadout>
Skeletal EC25

>  <unitLabel>
nM

>  <recordedResult>
100000

$$$$
>  <molecule>
C[C@H](NC(=O)[C@@H](C)c1c(C(F)(F)F)c2c(F)cccc2[nH]c1=O)c1ccc(F)cc1F (single isomer, unassigned) [compound 97]

>  <assayReadout>
Skeletal EC25

>  <unitLabel>
nM

>  <recordedResult>
230

$$$$
>  <molecule>
Cc1c(C2(C(=O)N[C@@H](C)c3ncc(C#N)cn3)CC2)c(=O)[nH]c2cccc(C#N)c12 (single isomer, unassigned) [compound 2544]

>  <assayReadout>
Skeletal EC25

>  <unitLabel>
nM

>  <recordedResult>
2270

$$$$

# context switch: different molecule, same Skeletal EC25
Input: State, in one line, measured Skeletal EC25 of Cc1c(CC(=O)N[C@@H](C)c2ncc(C#N)cc2F)c(=O)[nH]c2cccc(C#N)c12 [compound 1081]
Output: 30

----------
# systemUnderTest: Porcine ventricle myofibrils (ventricular myosin ATPase) (Sus scrofa)
# Construct: Myofibrils from porcine cardiac muscle was isolated from the left ventricle of Yucatan minipigs; tissue Exemplar Genetics; host or cells: left ventricle of Yucatan minipigs, myofibrils prepared in house
# Sequence (P79293 whole entry): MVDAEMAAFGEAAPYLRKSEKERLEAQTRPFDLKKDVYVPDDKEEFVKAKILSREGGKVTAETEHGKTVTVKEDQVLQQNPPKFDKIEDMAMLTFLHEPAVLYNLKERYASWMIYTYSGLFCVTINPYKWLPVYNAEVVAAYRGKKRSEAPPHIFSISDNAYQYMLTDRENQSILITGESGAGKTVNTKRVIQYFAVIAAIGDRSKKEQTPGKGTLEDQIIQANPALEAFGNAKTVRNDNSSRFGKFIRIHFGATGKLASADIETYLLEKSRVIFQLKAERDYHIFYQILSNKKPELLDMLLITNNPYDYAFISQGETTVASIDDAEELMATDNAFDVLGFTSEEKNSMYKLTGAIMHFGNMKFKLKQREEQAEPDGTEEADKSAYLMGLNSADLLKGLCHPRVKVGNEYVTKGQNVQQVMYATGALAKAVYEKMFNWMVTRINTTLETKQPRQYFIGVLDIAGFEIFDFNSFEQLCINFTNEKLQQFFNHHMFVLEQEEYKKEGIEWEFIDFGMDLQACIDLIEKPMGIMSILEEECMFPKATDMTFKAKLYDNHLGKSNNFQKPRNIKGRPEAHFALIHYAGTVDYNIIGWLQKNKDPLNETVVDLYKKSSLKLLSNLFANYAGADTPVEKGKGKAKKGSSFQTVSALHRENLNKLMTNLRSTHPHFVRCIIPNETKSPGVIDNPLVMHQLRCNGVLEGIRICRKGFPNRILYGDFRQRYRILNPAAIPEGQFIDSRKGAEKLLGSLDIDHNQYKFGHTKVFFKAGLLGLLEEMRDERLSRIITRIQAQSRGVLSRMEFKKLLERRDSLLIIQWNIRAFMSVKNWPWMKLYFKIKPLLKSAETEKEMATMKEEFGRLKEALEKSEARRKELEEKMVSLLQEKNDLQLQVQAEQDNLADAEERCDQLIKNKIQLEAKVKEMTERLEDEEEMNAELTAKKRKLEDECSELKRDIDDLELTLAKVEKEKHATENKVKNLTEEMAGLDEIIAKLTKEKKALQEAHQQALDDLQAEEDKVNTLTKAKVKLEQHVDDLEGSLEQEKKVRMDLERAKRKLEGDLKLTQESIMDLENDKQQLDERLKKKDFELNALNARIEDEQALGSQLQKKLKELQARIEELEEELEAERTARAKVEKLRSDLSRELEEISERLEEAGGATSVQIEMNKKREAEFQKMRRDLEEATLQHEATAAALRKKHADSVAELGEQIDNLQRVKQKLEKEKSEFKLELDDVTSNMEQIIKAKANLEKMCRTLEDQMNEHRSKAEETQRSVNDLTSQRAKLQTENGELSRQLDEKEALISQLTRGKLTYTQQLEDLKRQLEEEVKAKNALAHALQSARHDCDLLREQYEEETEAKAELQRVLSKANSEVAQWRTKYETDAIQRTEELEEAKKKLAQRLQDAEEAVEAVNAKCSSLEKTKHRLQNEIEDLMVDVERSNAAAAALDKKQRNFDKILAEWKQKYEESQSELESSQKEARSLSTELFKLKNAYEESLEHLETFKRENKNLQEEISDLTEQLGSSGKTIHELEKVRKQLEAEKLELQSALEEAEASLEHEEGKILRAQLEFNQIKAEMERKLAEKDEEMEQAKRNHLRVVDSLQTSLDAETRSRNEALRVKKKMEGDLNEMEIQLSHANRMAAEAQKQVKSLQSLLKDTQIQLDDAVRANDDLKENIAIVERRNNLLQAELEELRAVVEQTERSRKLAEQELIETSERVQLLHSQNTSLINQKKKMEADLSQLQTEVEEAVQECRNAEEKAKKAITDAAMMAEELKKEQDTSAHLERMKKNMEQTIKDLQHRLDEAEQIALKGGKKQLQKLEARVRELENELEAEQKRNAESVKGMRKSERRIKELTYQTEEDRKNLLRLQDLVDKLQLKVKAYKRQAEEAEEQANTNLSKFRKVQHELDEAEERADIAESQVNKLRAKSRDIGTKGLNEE
# protocolDescription: Myofibril ATPase assay, porcine ventricle myofibrils
# Type: biochemical, porcine (Yucatan minipigs)
# testParameters: porcine ventricle myofibrils; Y75 value
assayReadout: Ventricular EC25 (µM)
Kindly provide the numeric value in µM only, without the unit symbol.

>  <compound>
C[C@H](NC(=O)Cc1cc2nc(F)ccc2[nH]c1=O)c1ccc(F)cc1F

>  <unitLabel>
µM

>  <Ventricular EC25>
2.65

$$$$

# context switch: different compound, same Ventricular EC25
Input: Give the observed Ventricular EC25 of CCOc1nccc2[nH]c(=O)c(CC(=O)N[C@@H](C)c3ccc(F)cc3F)c(C(F)(F)F)c12 for Porcine ventricle myofibrils (ventricular myosin ATPase) (Sus scrofa).
Output: 100.00

----------
# Tested on: Porcine atria myofibrils (atrial myosin ATPase)
# protocolDescription: Myofibril ATPase assay, porcine atria myofibrils
# Type: biochemical
# testParameters: porcine atria myofibrils; Y75 value (75% activity relative to no compound)
assayReadout: Atrial EC25 (µM)
Kindly provide the numeric value in µM only, without the unit symbol.

Take a look at these entries with their results.
>  <compound>
C[C@H](NC(=O)[C@H](C)c1cc2nc(C#N)ccc2[nH]c1=O)c1ccc(F)cc1F (single isomer, unassigned)

>  <Atrial EC25 (µM)>
100.00

$$$$
>  <compound>
Cc1nccc2[nH]c(=O)c(CC(=O)N[C@H](CO)c3ccc(C#N)cc3F)c(C)c12 (single isomer, unassigned)

>  <Atrial EC25 (µM)>
8.52

$$$$
>  <compound>
Cc1nccc2[nH]c(=O)c(CC(=O)N[C@H]3c4c(F)cc(F)cc4OC3(C)C)c(C)c12 (single isomer, unassigned)

>  <Atrial EC25 (µM)>
1.22

$$$$
>  <compound>
Cc1c(CC(=O)N[C@@H](C)c2ccc(F)cc2F)c(=O)[nH]c2ccnc(I)c12

>  <Atrial EC25 (µM)>
0.14

$$$$
>  <compound>
Cc1nccc2[nH]c(=O)c(CC(=O)N[C@@H](c3ccc(F)cc3F)C(C)(C)O)c(C)c12 (single isomer, unassigned)

>  <Atrial EC25 (µM)>
100.00

$$$$
>  <compound>
Cc1nccc2[nH]c(=O)c(CC(=O)N[C@H](C)c3cnc(C#N)cn3)c(C)c12

>  <Atrial EC25 (µM)>
1.49

$$$$

Input: State, in one line, measured Atrial EC25 of Cc1nccc2[nH]c(=O)c([C@@H](C)C(=O)N[C@@H](C)c3ncc(C#N)cc3F)c(C)c12 (single isomer, unassigned)
Output: 0.47

Input: State, in one line, measured Atrial EC25 of Cc1c(CC(=O)N[C@H](C)c2ccc(C#N)cc2F)c(=O)[nH]c2ccnc(C(F)(F)F)c12
Output: 0.34

Input: State, in one line, measured Atrial EC25 of Cc1c(CC(=O)N[C@H](C)c2ccc(C#N)cn2)c(=O)[nH]c2ccncc12
Output: 100.00

Input: State, in one line, measured Atrial EC25 of C[C@@H](NC(=O)Cc1cc2c(C#N)nccc2[nH]c1=O)c1ccc(F)cn1
Output: 100.00

Input: State, in one line, measured Atrial EC25 of Cc1ccc([C@H](CO)NC(=O)Cc2c(C)c3c(C)nccc3[nH]c2=O)cc1 (single isomer, unassigned)
Output: 69.32
